Molecular target: Chemerin-like receptor 1 (Homo sapiens, UniProt Q99788)
Sequence (Q99788 whole entry): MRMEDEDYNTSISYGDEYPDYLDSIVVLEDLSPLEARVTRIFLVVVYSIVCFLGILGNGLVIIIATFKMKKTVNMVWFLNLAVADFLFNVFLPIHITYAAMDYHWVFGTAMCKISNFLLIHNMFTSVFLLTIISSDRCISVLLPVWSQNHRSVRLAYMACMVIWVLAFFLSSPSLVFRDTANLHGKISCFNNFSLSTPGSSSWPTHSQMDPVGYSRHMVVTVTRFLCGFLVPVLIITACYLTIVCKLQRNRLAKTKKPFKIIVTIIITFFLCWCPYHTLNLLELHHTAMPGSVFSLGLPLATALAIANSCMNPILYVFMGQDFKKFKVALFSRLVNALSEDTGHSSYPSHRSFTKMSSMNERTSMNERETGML
Assay: Antagonist activity at human CMKLR1 expressed in CHO-K1 cells co-expressing Galpha-16 assessed as change in intracellular calcium concentration incubated for 30 mins in presence of chemerin-9 by FLIPR calcium 5 assay
Format: functional, cell-based
Please map values of IC50 to classes as shown: low interval (below 100 nM), middle interval (100 nM to below 700 nM), high interval (700 nM or more)

C[C@@H](CC(=O)O)c1ccc(OCc2cc(F)c3c(-c4cc(Cl)c(O)c(Cl)c4)nn(C4CCCC4)c3c2)cc1
low interval
CC(CC(=O)O)c1ccc(OCc2ccc3c(-c4ccc(Cl)cc4)nn(C4CCCC4)c3c2)cc1 (racemic)
high interval
C[C@@H](CC(=O)O)c1ccc(OCc2ccc3c(-c4cc(F)c(CO)c(F)c4)nn(C4CCCC4)c3c2)cc1
low interval
C[C@@H](CC(=O)O)c1ccc(OCc2ccc3c(-c4cc(Cl)c(O)c(Cl)c4)nn(C4CCCC4)c3c2)cc1
middle interval

Please classify: CC(CC(=O)O)c1ccc(OCc2ccc3c(-c4cc(Cl)c(O)c(Cl)c4)nn(C4CCCC4)c3c2)cc1 (racemic)
middle interval

====

Molecular target: UniProt:Q99788
Assay: Antagonist activity at human CMKLR1 expressed in CHO-K1 cells co-expressing Galpha-16 assessed as change in intracellular calcium concentration incubated for 30 mins in presence of chemerin-9 by FLIPR calcium 5 assay
Assay type: functional, cell-based
assayMetric: IC50

Consider the worked cases shown below.
Cc1ccc(-c2nn(C3CCCC3)c3cc(COc4ccc(C(C)CC(=O)O)cc4)ccc23)cc1 (racemic)
2340 nM
C[C@@H](CC(=O)O)c1ccc(OCc2ccc3c(-c4cc(Cl)c(O)cc4Cl)nn(C4CCCC4)c3c2)cc1
525 nM
C[C@@H](CC(=O)O)c1ccc(OCc2ccc3c(-c4cc(F)c(O)cc4F)nn(C4CCCC4)c3c2)cc1
513 nM

Switching to the query record.
What does the data say about its IC50? Entry: C[C@@H](CC(=O)O)c1ccc(OCc2ccc3c(-c4ccc(O)cc4Cl)nn(C4CCCC4)c3c2)cc1
676 nM
